# Test system: HCC1806
# Protocol Notes: GRmax, 72 h; higher = less effect;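 note: breast cell lines in 384-well plates, nine doses across a 10^4 range, Dye Drop imaging of viable cells vs DMSO and time-zero plates, GR 0 means no net growth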
Binary classification by GRmax, 72 h, with 0.2 GR as an inclusive lower bound for Condition met; all other cases are Condition not met.

{"columns": ["Compound", "Category"],
 "data": [
  ["CCCCOc1c(C(=O)c2c(F)cc(C)cc2F)c[nH]c2nncc1-2 (max 10 µM)", "Condition not met"],
  ["CN1CCN(CCOc2cc(OC3CCOCC3)c3c(Nc4c(Cl)ccc5c4OCO5)ncnc3c2)CC1 [Saracatinib/AZD0530] (max 10 µM)", "Condition met"],
  ["COc1cc(N2CCN(C)CC2)ccc1Nc1ncc2c(n1)N(C)c1ccccc1C(=O)N2CC(F)(F)F", "Condition met"],
  ["CN1CC[C@H](c2c(O)cc(O)c3c(=O)cc(-c4ccccc4Cl)oc23)[C@H](O)C1 [Flavopiridol] (max 1 µM)", "Condition not met"],
  ["CS(=O)(=O)N1CCN(Cc2cc3nc(-c4cccc5[nH]ncc45)nc(N4CCOCC4)c3s2)CC1 [Pictilisib/GDC0941] (max 10 µM)", "Condition not met"],
  ["C[C@@H]1COCCN1c1cc(C2([S@](C)(=N)=O)CC2)nc(-c2cc[nH]c3nccc2-3)n1 [AZD6738] (max 10 µM)", "Condition not met"],
  ["CCNC(=O)c1noc(-c2cc(C(C)C)c(O)cc2O)c1-c1ccc(CN2CCOCC2)cc1 [Luminespib/NVP-AUY922] (max 1 µM)", "Condition not met"]
]}

Where do these numbers come from? They come from the supplement of paper PMC9663587.
